Test system: HL-60
MEASUREMENT_NOTES: NCI tumour cell line growth inhibition, 48 h
The source made the active and inactive calls. Cut-off read from the data, not from the text of the source: active = GI50 up to about 1.1 µM and inactive = higher.

| COMPOUND | GI50 |
| --- | --- |
| CCOC(=O)CNC(=O)C(C)NC(=O)C(NC(=O)CC(c1ncc[nH]1)c1ncc[nH]1)C(C)CC (stereo unspecified) | > 100 µM (inactive) |
| Cc1nc(Nc2ccc(Cl)cc2Cl)sc1C(=O)Nc1ccccc1 | > 10 µM (inactive) |
| Cc1cc(Br)cc(C)c1NC(=O)C(=O)C(C(=O)c1ccncc1)C1OC(=O)c2ccccc21 (stereo unspecified) | > 100 µM (inactive) |
| C=CCOc1ccc(N)c([N+](=O)[O-])c1 | > 100 µM (inactive) |
| CC(NC1=NCCO1)c1ccco1 (stereo unspecified) | > 100 µM (inactive) |
| O/N=C1\Nc2ccccc2OCc2cc(Br)c(Br)cc2COc2ccccc2N\C1=N/O | 5.18 µM (inactive) |

---

Tested on: OVCAR-8
MEASUREMENT_NOTES: NCI tumour cell line growth inhibition, 48 h
The source made the active and inactive calls. Cut-off read from the data, not from the text of the source: active = GI50 up to about 1.1 µM and inactive = higher.
QUANTITY_MEASURED: GI50

| COMPOUND | TEST_RESULT |
| --- | --- |
| CSc1nc2cc(S(=O)(=O)N3CCCCC3)ccc2s1 | > 100 µM (inactive) |
| O=S(=O)(O)Nc1ccc(-c2nc3ccccc3s2)cc1Cl | > 100 µM (inactive) |
| COCN1COCN(C)C1=O | > 100 µM (inactive) |
| COC(=O)C1=C(OC(=O)/C=C/c2ccc(Cl)cc2)C(C(=O)OC)[C@]2(O)[C@@H](C(=O)OC)[C@H]1C[C@@H](c1ccccc1)[C@@H]2C(=O)OC (stereo not given in full) | 3.95 µM (inactive) |
| COc1ccc(OC)c2sc(N3C(=O)/C(=C/c4ccc(N(C)C)cc4)N=C3c3ccccc3)nc12 | 78.5 µM (inactive) |
| COc1cc2c(cc1OC)C(=O)/C(=C/c1ccc(N(C)C)cc1)CC2 | > 10 µM (inactive) |
| CC(=O)NNc1nc(C)c(C(/C=C/c2ccc3c(c2)OCO3)=N/Nc2ccccc2)s1 | > 100 µM (inactive) |
| CC(=O)Nc1ccc(NS(=O)(=O)c2ccc3nc(C)n(NS(=O)(=O)c4ccc(NC(C)=O)cc4)c(=O)c3c2)cc1 | > 100 µM (inactive) |
| N=C1/C(=C/c2ccc(F)cc2)C(=O)N=C2SC=NN12 | > 100 µM (inactive) |
| O=C1/C(=C\c2ccc(Br)cc2)CCCc2ccccc21 | 15 µM (inactive) |
| Cc1c2c(n3c(nc4ccccc43)c1C#N)SCC2 | > 10 µM (inactive) |
| O=C(OCc1ccccc1)N(CCCCN(CCCNC(=O)C(F)(F)F)C(=O)OCc1ccccc1)CCCNC(=O)C(F)(F)F | > 100 µM (inactive) |
| N#CC1CCCCOCCOCCOCCOCCOCCCCCC1=O (stereo not given) | > 100 µM (inactive) |
| CC1=NNC(=O)C1C1CC(c2c[nH]c3ccccc23)=NNC1=S (stereo not given) | > 100 µM (inactive) |
| CCOC(=O)Nc1ccc(S(=O)(=O)I)cc1.CCOC(=O)Nc1ccc(S(=O)(=O)I)cc1.CN(C=O)C1=C(N(C)C=O)C(N(C)C=O)=C(N(C)C=O)C(=O)C1=O | > 100 µM (inactive) |
| FC(F)(F)c1ccc2c(c1)N(CCCNCCN1CCOCC1)c1ccccc1S2 | 16.6 µM (inactive) |
| CC1CCC2(OCCO2)[C@]2(C)CC(O)C(=O)C=C12 (stereo not given in full) | > 100 µM (inactive) |
| CCCCSC1=N/C(=C\c2ccc(N(C)C)cc2)C(NN)=N1 | > 100 µM (inactive) |
| O=S(=O)(O)C(CO)c1ccccc1.O=S(=O)(O)Cc1ccccc1 (stereo not given) | > 100 µM (inactive) |
| Cc1ccc(Nc2nc3c(s2)C(=O)c2ccccc2C3=O)cc1 | 2.18 µM (inactive) |

---

Tested on: SK-OV-3
MEASUREMENT_NOTES: NCI tumour cell line growth inhibition, 48 h
Activity calls are given as the source filed them. Rule as the data show it: active = GI50 up to about 1.1 µM and inactive = higher. *1 amine or outer side, *2 acyl side, *3 side chain or, on linkers, in order; H or OH if unused. Where a SMILES comes first, the peptide text is derived from it. [ ]: non-standard residue; d: D form. The star is where a group is joined. ξ: configuration not given here. X43 = CCC(=O)CC(O)CC(C)CC(N[*:1])C(=O)[*:2]; ξLeu(3ξ-OH) = CC(C)C(O)C(N)C(=O)O; ξPro(4ξ-Me) = CC1CNC(C(=O)O)C1; X42 = CCC(C)/C=C/C(=O)*; Aib = CC(C)(N)C(=O)O; X44 = CC(CN(C)C)N*; βAla = NCCC(=O)O
Possible outcomes: 1 for active, 0 for inactive

| COMPOUND | MEASURED_ON | CATEGORY_LABEL |
| --- | --- | --- |
| CCC(=O)CC(O)CC(C)CC(NC(=O)C1CC(C)CN1C(=O)/C=C/C(C)CC)C(=O)NC(C(=O)NC(C)(C)C(=O)NC(CC(C)C)C(=O)NC(CC(C)C)C(=O)NC(C)(C)C(=O)NC(C)(C)C(=O)NCCC(=O)NC(C)CN(C)C)C(O)C(C)C (stereo not drawn) (X42-[ξPro(4ξ-Me)][X43][ξLeu(3ξ-OH)][Aib]LL[Aib][Aib][βAla]-X44; configuration not given here) | SK-OV-3 | 1 |
| CCOP(=O)(OCC)C(Cc1cn(S(=O)(=O)c2ccc(C)cc2)cn1)C(=O)O (stereo not drawn) | SK-OV-3 | 0 |
| CC(=O)O/N=C/c1c2ccccc2cc2ccccc12 | SK-OV-3 | 0 |

---

Test system: CCRF-CEM
MEASUREMENT_NOTES: NCI tumour cell line growth inhibition, 48 h
The source made the active and inactive calls. Rule as the data show it: active = GI50 up to about 1.1 µM and inactive = higher.
Possible outcomes: True for active, False for inactive

| MOLECULE | MEASURED_ON | CATEGORY_LABEL |
| --- | --- | --- |
| COC(=O)C1Cc2cc3c(cc2C1)CCC3 | CCRF-CEM | False |
| Cc1ccc(Nc2nc3c(s2)C(=O)c2ccccc2C3=O)cc1 | CCRF-CEM | False |
| O=C(/C(=C\c1ccc(Cl)cc1)c1ccccc1)c1ccccc1 | CCRF-CEM | False |
| COc1ccc(/C=C2/SC(c3c(O)ccc4ccccc34)N(NC(=O)CCCCCCCCC(=O)NN3C(=O)/C(=C\c4ccc(OC)c(OC)c4)SC3c3c(O)ccc4ccccc34)C2=O)cc1OC (stereo not given) | CCRF-CEM | True |
| CC(C)(C)c1cc(C(=O)/C=C/C=C/c2ccccc2)cc(C(C)(C)C)c1O | CCRF-CEM | False |
| COc1cc(C=O)cc(/C=N/c2ccc(Br)cc2)c1O | CCRF-CEM | False |
| COc1c(C)cc2c(c1O)C1C3[C@H]4SC[C@@]5(NCCC6=C5NC5C=CC=CC65)C(=O)OCC(c5c6c(c(C)c(OC(C)=O)c54)OCO6)N3[C@@H](O)C(C2)N1C (stereo not given in full) | CCRF-CEM | True |
| O=C1[C@H]2ON(c3ccccc3)C(c3ccccc3)[C@H]2C(=O)N1c1ccc(Cc2ccc(N3C(=O)[C@@H]4ON(c5ccccc5)C(c5ccccc5)[C@@H]4C3=O)cc2)cc1 (stereo not given in full) | CCRF-CEM | False |
| C[C@]12CCC3c4ccc(O)cc4CC[C@H]3C1CC(=O)N(CCN1CCCC1)C2=O (stereo not given in full) | CCRF-CEM | False |
| Nc1nc(O)c2ncn(C3OC(CO)C(O)C3O)c2n1 (stereo not given) | CCRF-CEM | False |
| C1CCNCC1.Oc1ncnc2[nH]cc(CN3CCCCC3)c12 | CCRF-CEM | False |
| C[C@]12CC[C@H]3[C@@H](CCC4=C(Br)C(=O)C=C[C@@]43O)[C@@H]1CCC2=O | CCRF-CEM | True |
| Cc1nn(C(=O)c2ccccc2O)c2c1C(c1ccccc1O)SC(=N)N2 (stereo not given) | CCRF-CEM | False |
| N#CC1CCCCOCCOCCOCCOCCOCCCCCC1=O (stereo not given) | CCRF-CEM | False |
| C=C1c2nc3ccccc3n2C=C(c2ccc(OC)cc2)N1c1ccc(OCCN2CCOCC2)cc1 | CCRF-CEM | False |
| O=S(=O)(O)Nc1ccc(-c2nc3ccccc3s2)cc1Cl | CCRF-CEM | False |
| Cc1cc2c(cc1C(=O)CCC(=O)O)CC1(C2)Cc2cc(C)c(C(=O)CCC(=O)O)cc2C1 | CCRF-CEM | False |
| O=C1CC(c2c[nH]c3ccccc23)C(=O)N1 (stereo not given) | CCRF-CEM | False |
| Brc1nc2c3ccccc3ncn2c1Br | CCRF-CEM | False |
| OCc1ccc2c(c1)CC1(Cc3ccc(/C=N/O)cc3C1)C2 (stereo not given) | CCRF-CEM | False |
| FC(F)(F)C1(Cl)C(Cl)(c2ccccc2)C1(Cl)c1ccccc1 (stereo not given) | CCRF-CEM | False |
| O=[N+]([O-])c1cc(C2ON=C(c3ccccc3)N2C23CC4CC(CC(C4)C2)C3)ccc1Cl (stereo not given) | CCRF-CEM | False |
| C=C1C[C@]23CC[C@@H]4C(CO)(CO)CC(=O)C[C@]4(C)[C@@H]2CC[C@H]1C3 | CCRF-CEM | False |
| O=c1c2c3c(sc2nc2n1N=C(c1ccc([N+](=O)[O-])cc1)CS2)CCCC3 | CCRF-CEM | False |
| CC(C)C(=O)OCN(C)c1nc(N(C)COC(=O)C(C)C)nc(N(C)COC(=O)C(C)C)n1 | CCRF-CEM | False |
| COC(=O)c1c2c(cc3c1CC1(Cc4cc5c(c(C(C)=O)c4C1)CCCC5)C3)CCCC2 (stereo not given) | CCRF-CEM | False |
| O=C(O)c1cc(Sc2ccc([N+](=O)[O-])c(C(=O)O)c2)ccc1[N+](=O)[O-] | CCRF-CEM | False |
| Cc1c(N(C)C)ccc2c(=O)c3cccc(CC(=O)O)c3oc12 | CCRF-CEM | False |
| CC1=C[P+](Cc2ccccc2)(c2ccccc2)CC1 (stereo not given) | CCRF-CEM | False |
| CC(=O)NNc1nc(C)c(C(/C=C/c2ccc3c(c2)OCO3)=N/Nc2ccccc2)s1 | CCRF-CEM | False |
| CCCCCCOc1ccc(C(=O)N(C)O)cc1 | CCRF-CEM | False |
| O=C(CCN1CCN2c3ccccc3CCC2C1)c1ccc(F)cc1 (stereo not given) | CCRF-CEM | False |
| COc1ccc(OC)c2sc(N3C(=O)/C(=C/c4ccc(N(C)C)cc4)N=C3c3ccccc3)nc12 | CCRF-CEM | False |
| C/C(CN1C(=O)c2ccccc2C1=O)=N\NS(=O)(=O)c1ccc(Cl)cc1 | CCRF-CEM | False |
| O=C(c1ccc2ccccc2c1O)N1CCCCC1 | CCRF-CEM | False |
| Cc1cc(Br)cc(C)c1NC(=O)C(=O)C(C(=O)c1ccncc1)C1OC(=O)c2ccccc21 (stereo not given) | CCRF-CEM | False |
| O=C(O)CSC(CC1(c2ccc(Cl)cc2)NC(=O)CS1)c1ccc(Cl)cc1 (stereo not given) | CCRF-CEM | False |
| O=[N+]([O-])c1nccn1COCCI | CCRF-CEM | False |
| Cc1ccc(NC(=O)C(=O)C2NC(=S)NC2=O)c([N+](=O)[O-])c1 (stereo not given) | CCRF-CEM | False |
| O=c1[nH]nc(-c2ccccc2)n1/N=C/c1cccs1 | CCRF-CEM | False |
